Source: patent US8546392B2

tested-system: 17β-HSD1 (Homo sapiens (Human))
Sequence (P14061 whole entry): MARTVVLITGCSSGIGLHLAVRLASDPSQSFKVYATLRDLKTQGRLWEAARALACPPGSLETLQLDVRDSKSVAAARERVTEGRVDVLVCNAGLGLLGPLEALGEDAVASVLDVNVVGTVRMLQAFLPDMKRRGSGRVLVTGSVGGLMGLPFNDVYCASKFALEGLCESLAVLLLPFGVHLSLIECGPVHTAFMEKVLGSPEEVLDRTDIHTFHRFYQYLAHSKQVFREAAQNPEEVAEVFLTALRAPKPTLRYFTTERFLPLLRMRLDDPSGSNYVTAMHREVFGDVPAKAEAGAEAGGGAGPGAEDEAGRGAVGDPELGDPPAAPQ
protocol: 17β-HSD1 test assay (recombinant protein from Sf9 insect cells, 3H-estrone/NADPH)
Format: biochemical
setup-conditions: read-out: HSD1 100 nM (% inhibition); inhibitor 100 nM
measured-attribute: inhibition at 0.1 µM (%)

[a] O=C(O)c1cccc(-c2c(O)ccc3cc(-c4cccc(O)c4)ccc23)c1
[b] O=C(Nc1ccccc1)c1cc2cc(-c3cccc(O)c3)ccc2cc1O
## Task Between the two listed entries a and b , which has its inhibition at 0.1 µM at the higher number? Give the label of your selection.
## Result a

----------
Tested on: CaCo-2 cells
protocol: CaCo-2 assay (transport experiments)
Format: in vitro ADME
setup-conditions: class in words
measured-attribute: Permeability

Some entries whose results are on file:
N#Cc1cc(O)cc2ccc(-c3cccc(O)c3)cc12; moderate
O=C(Nc1ccccc1)c1c(O)ccc2cc(-c3cccc(O)c3)ccc12; moderate
Oc1cccc(-c2ccc3c(-c4cccnc4)c(O)ccc3c2)c1; high
Oc1cccc(-c2ccc3cc(O)ccc3c2)c1 [Compound 19, 6-(3-Hydroxyphenyl)-2-naphthol]; moderate

## Task Quick check: Permeability on CaCo-2 cells, item Nc1cccc(-c2c(O)ccc3cc(-c4cccc(O)c4)ccc23)c1 ?
## Result high
